measurementProtocol: Crossover study with pharmacokinetic analysis, single oral dose in healthy male subjects
Type: in vivo, human
experimentalSetup: male, human, plasma; 20 mg single oral dose, fed; Overall (N = 20); read-out: Tmax (h), Median
measuredProperty: Tmax

Prompt: Fill in the blank: the reported Tmax of Cc1cc(N2CCc3cc(F)ccc3C2)cc(C)c1NC(=O)CC(C)(C)C [Compound A] is ____.
Completion: ~8 h

---

measurementProtocol: Crossover study with pharmacokinetic analysis, single oral dose in healthy male subjects
Type: in vivo, human
experimentalSetup: male, human, plasma, po, 20 mg, 4 h timepoint; 20 mg single oral dose; full PK profile; read-out: mean SD plasma concentration
measuredProperty: concentration at 4 h
The reply must contain the numeric value and, after it, the unit.

Prompt: Suppose we examine the compound Cc1cc(N2CCc3cc(F)ccc3C2)cc(C)c1NC(=O)CC(C)(C)C ; what concentration at 4 h value has been reported?
Completion: 30.2 ng/mL

Every entry's value here was drawn from patent US20240342156A1.
